So I've got a bunch of molecules here, and I need their Emax values.
Molecular target: RORγt (Mus musculus, UniProt P51450, T352K)
Sequence (P51450 with tags, fused parts or gaps T352K): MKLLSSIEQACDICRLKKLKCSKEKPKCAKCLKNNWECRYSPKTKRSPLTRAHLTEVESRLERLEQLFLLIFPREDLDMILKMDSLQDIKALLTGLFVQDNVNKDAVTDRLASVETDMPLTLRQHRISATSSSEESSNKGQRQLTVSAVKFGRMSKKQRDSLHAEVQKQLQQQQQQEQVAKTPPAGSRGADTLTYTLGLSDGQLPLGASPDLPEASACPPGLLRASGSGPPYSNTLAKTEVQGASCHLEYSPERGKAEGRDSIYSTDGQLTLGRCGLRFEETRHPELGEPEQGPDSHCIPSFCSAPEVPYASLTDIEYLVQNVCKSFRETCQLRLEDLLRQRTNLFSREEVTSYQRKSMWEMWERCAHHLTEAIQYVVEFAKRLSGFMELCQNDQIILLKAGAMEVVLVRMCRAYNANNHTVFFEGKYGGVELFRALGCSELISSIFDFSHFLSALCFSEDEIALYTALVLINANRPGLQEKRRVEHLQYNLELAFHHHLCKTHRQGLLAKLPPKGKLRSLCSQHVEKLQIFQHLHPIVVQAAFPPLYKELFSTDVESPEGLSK
Test: RORγt S2 cell Gal4-luciferase reporter assay
Settings: read-out: Efficacy (%)

MOLECULE	SYSTEM TESTED	Emax
COc1cc(O)c(C(CC(=O)N2CC(C)CC(C)C2)c2cccc(F)c2)c(OC)c1 (centres unmarked)	RORγt (Mus musculus, UniProt P51450, T352K)	99.9%
CC1CCCN(C(=O)CC(c2ccc3c(c2)OCO3)c2ccc(F)cc2O)C1 (centres unmarked)	RORγt (Mus musculus, UniProt P51450, T352K)	30.4%
COc1cc(O)c(C(CC(=O)N2CCCC(COc3ccc(F)cc3)C2)c2ccc3c(c2)OCO3)c(OC)c1 (centres unmarked)	RORγt (Mus musculus, UniProt P51450, T352K)	47.5%

Quick request: Emax for each listed item, please.
1. COc1ccc2ccccc2c1C(c1ccc(F)cc1)C(C)(C)C(=O)N1CC(C)OC(C)C1 (centres unmarked)
2. COc1cc(O)c(C(CC(=O)N2CCCC(C#N)C2)c2ccc3c(c2)OCO3)c(OC)c1 (centres unmarked)
3. COc1cc(O)c(C(CC(=O)N2CCCC(C)C2)c2ccc3ccccc3c2)c(OC)c1 (centres unmarked)
4. COc1cc(O)c(C(CC(=O)N2CC(C)CC(C)C2)c2cc(F)c(F)c(F)c2)c(OC)c1 (centres unmarked)
5. COc1cc2ccccc2c(O)c1C(CC(=O)N1CCCC(C)C1)c1ccc2c(c1)OCO2 (centres unmarked)

(A)
1: 99.9%; 2: 66%; 3: 92.4%; 4: 97.3%; 5: 80%
